Cited source: PubChem BioAssay AID248

- Tested on: L1210 leukemia ip in BDF1 mice, survival T/C
- EXPERIMENTAL_PROTOCOL: NCI In Vivo Anticancer Drug Screen. Data for tumor model L1210 Leukemia (intraperitoneal) in B6D2F1 (BDF1) mice
- CONDITION_PARAMETERS: endpoint: mean survival time; dose: 100.0 mg/kg/injection; schedule: Q04DX002 (ip); vehicle: saline with Tween-80; higher = longer survival
Toxic doses and inconclusive results are not listed.
Documented T/C across a set of molecules

Qu. Would you mind telling me what T/C value was observed for CN(C)C(=S)SCC(=O)NC(CO)C(=O)O (stereo not drawn) ?
Ans. 100 % of control

Qu. Consider next the molecule O=C(CCc1ccccc1)NC(=S)Nc1ccc(I)cc1 in the same way.
Ans. 104 % of control

Qu. Consider next the molecule ClCc1noc(-c2ccccc2)n1 in the same way.
Ans. 98 % of control

###

- Tested on: L1210 leukemia ip in BDF1 mice, survival T/C
- EXPERIMENTAL_PROTOCOL: NCI In Vivo Anticancer Drug Screen. Data for tumor model L1210 Leukemia (intraperitoneal) in B6D2F1 (BDF1) mice
- CONDITION_PARAMETERS: endpoint: mean survival time; dose: 200.0 mg/kg/injection; schedule: Q01DX009 (ip); vehicle: saline; higher = longer survival
Inconclusive results and toxic doses are left out.
OBSERVABLE: T/C

>  <COMPOUND>
CCOC(=O)N1CCOCC1

>  <OBSERVABLE>
T/C

>  <READING>
97 % of control

$$$$
>  <COMPOUND>
CCN(CC)CCOC(=O)CSC1C2CC3C(C2)C31 (stereo unspecified)

>  <OBSERVABLE>
T/C

>  <READING>
123 % of control

$$$$

Qu. Form: Entry = CC(=O)NCCCCCC(=O)O | System = L1210 leukemia ip in BDF1 mice, survival T/C | T/C = ____
Ans. 100 % of control

Qu. Consider next the compound CCOC(=O)CC(N)C(=O)OCC (stereo unspecified) in the same way.
Ans. 95 % of control

Qu. Consider next the compound COC(O)C(Cl)(Cl)Cl (stereo unspecified) in the same way.
Ans. 103 % of control

Qu. Consider next the compound CC(=O)NC(CO)(CO)CO in the same way.
Ans. 89 % of control

Qu. Consider next the compound O=C1c2ccccc2CCC12OC2c1ccc(Cl)cc1 (stereo unspecified) in the same way.
Ans. 98 % of control

Qu. Consider next the compound OCC1OC(n2cnc3c2nnn2ccnc32)C(O)C1O (stereo unspecified) in the same way.
Ans. 120 % of control

Qu. Consider next the compound COC(=O)c1ccc(SCCCN2CCOCC2)cc1 in the same way.
Ans. 96 % of control

Qu. Consider next the compound O=C(c1ccccc1)N1CCCCC1 in the same way.
Ans. 95 % of control

Qu. Consider next the compound COc1ccc(Cl)cc1NS(=O)(=O)c1ccc(Cl)cc1[N+](=O)[O-] in the same way.
Ans. 94 % of control

Qu. Consider next the compound O=C1C2C(Cl)C(Cl)C(Cl)C(Cl)C2C(=O)N1NC1CCC([N+](=O)[O-])CC1[N+](=O)[O-] (stereo unspecified) in the same way.
Ans. 94 % of control

Qu. Consider next the compound O=S(=O)(O)c1cccc2cccc(Cl)c12 in the same way.
Ans. 97 % of control

Qu. Consider next the compound Cn1c(=O)c2c(ncn2CCCCO)n(C)c1=O in the same way.
Ans. 95 % of control

Qu. Consider next the compound Nc1ncnn1C(=O)NCCCl in the same way.
Ans. 97 % of control

Qu. Consider next the compound N#CC(Nc1ccccc1C(N)=O)c1ccccc1 (stereo unspecified) in the same way.
Ans. 106 % of control

Qu. Consider next the compound COC(CO)C(O)C(O)C=O (stereo unspecified) in the same way.
Ans. 97 % of control

Qu. Consider next the compound CCOC(=O)c1cnc2ccccn2c1=O in the same way.
Ans. 101 % of control
